- ASSAY_EXPLANATION: in vitro
- CONDITION_INFO: human, hela cells, % viability
QUANTITY: viability at 28.5 h, 10 µM (%)
Form entry: value (%) — number only.

Bench note: what viability at 28.5 h, 10 µM did "CN1[C@@H](CCC(=O)N2CCOCC2)CNC(=O)[C@@H]2[C@H]1CCN2C1CCCCC1" show?
88.9

Bench note: what viability at 28.5 h, 10 µM did "COc1ccc(OCc2nc3ccccc3[nH]2)cc1" show?
94.8

Bench note: what viability at 28.5 h, 10 µM did "CC(=O)c1ccc(NC(=O)NC[C@H]2C[C@@H]3CC[N@]2C[C@@H]3CN2CCN(C)CC2)cc1" show?
116

Bench note: what viability at 28.5 h, 10 µM did "Nc1ncnc2c1nc1n2[C@H]2C[C@@H](O)[C@@H](C1)O2" show?
102

Bench note: what viability at 28.5 h, 10 µM did "O=C(Nc1ncc(-c2ccccc2)s1)c1csc([N+](=O)[O-])c1" show?
87.4

Bench note: what viability at 28.5 h, 10 µM did "Cc1ccc(S(=O)(=O)Nc2c(C(=O)N3CCN(C)CC3)[nH]c3ccccc23)cc1[N+](=O)[O-]" show?
90.1

Bench note: what viability at 28.5 h, 10 µM did "O=[N+]([O-])c1ccc(CN2C[C@H](O)C[C@H]2c2nc(-c3ccccc3)no2)cc1" show?
108

Bench note: what viability at 28.5 h, 10 µM did "COc1cccc(Cn2c(=O)[nH]n(-c3ccccc3)c2=O)c1" show?
97.7
